Item-by-item account of log10 IC50
target: Apelin receptor (Homo sapiens) (UniProt P35414); experiment: potency against CXCR6 with APJ panel – cell-based, beta-arrestin, DiscoveRx, uHTS hits, dose response (AID 624129); conditions: CXCR6 beta-arrestin (DiscoveRx) antagonist cell assay, APJ, run 2, dose range 1
Reported Metric: log10 IC50 (log10 of the value in µM)

{"Molecule": "CC(C)(C)c1ccc(CN2N=Nc3ccccc3S2(=O)=O)cc1", "log10 IC50": 1.45}
{"Molecule": "COc1ccc(C(=O)/C(=C\\c2ccco2)N2C=CC=CC2=C(C#N)C#N)cc1", "log10 IC50": 0.70}
{"Molecule": "CCc1cc2c(=O)[nH]c(-c3ccccn3)nc2s1", "log10 IC50": 0.33}
{"Molecule": "CS(=O)(=O)c1ccc(C(=O)OCc2nnc(-c3ccccc3)o2)cc1[N+](=O)[O-]", "log10 IC50": 0.51}
{"Molecule": "O=C(c1nnsc1S(=O)c1ccc(Cl)cc1)N1CCOCC1 (stereo not given)", "log10 IC50": 1.40}
{"Molecule": "Cc1c(Cl)sn(-c2ccc(Cl)cc2)c1=O", "log10 IC50": 1.16}
{"Molecule": "C=CS(=O)(=O)c1ccc(Oc2ccc(S(=O)(=O)C=C)cc2)cc1", "log10 IC50": 1.00}
{"Molecule": "C=C1C(=O)c2sccc2C(c2ccc(OC)c(OC)c2)C1COC(C)=O (stereo not given)", "log10 IC50": 0.78}
{"Molecule": "C=C1C(=O)C23C(O)C1CCC2C12CCCC(C)(COC(C)=O)C1C(O)C3(O)OC2 (stereo not given)", "log10 IC50": 0.88}
{"Molecule": "CCS(=O)(=O)c1ncc(Cl)c(C(=O)Nc2ccc(S(=O)(=O)N3CCC(C)CC3)cc2)n1", "log10 IC50": 0.81}
{"Molecule": "Cc1[nH][nH]c(=O)c1C(c1c(C)[nH][nH]c1=O)c1cn(Cc2ccc(Cl)c(Cl)c2)c2ccccc12", "log10 IC50": 1.77}
{"Molecule": "C=C(CN(C)C)C(=O)c1ccc(OC2OC(COC(C)=O)C(OC(C)=O)C(OC(C)=O)C2OC(C)=O)cc1 (stereo not given)", "log10 IC50": 1.58}
{"Molecule": "Cc1nnc(Sc2cc(NCCCO)c([N+](=O)[O-])c3nonc23)s1", "log10 IC50": 1.05}
{"Molecule": "O=C(C#Cc1ccccc1)c1ccco1", "log10 IC50": 1.12}
{"Molecule": "O=c1cc(CSc2ccc(Cl)cc2)nc(-c2ccccn2)[nH]1", "log10 IC50": 0.57}
{"Molecule": "CCc1ccccc1OCC(=O)Nc1nc(-c2cccnc2)cs1", "log10 IC50": 1.08}
{"Molecule": "C/C(=N\\NC(=O)C(c1ccccc1)c1ccccc1)c1ccccn1", "log10 IC50": 0.97}
{"Molecule": "Cc1cccnc1Nc1nc(-c2ccccn2)cs1", "log10 IC50": 0.26}
{"Molecule": "NC(=S)N/N=C/c1ncc(C(F)(F)F)cc1Cl", "log10 IC50": 0.94}

---

molecular target: C-X-C chemokine receptor type 6 (Homo sapiens); experiment: potency against CXCR6 with APJ panel – cell-based, beta-arrestin, DiscoveRx, uHTS hits, dose response (AID 624129); settings: CXCR6 beta-arrestin (DiscoveRx) antagonist cell assay, CXCR6, run 1, dose range 2
Reported Metric: log10 of IC50 (log10 of the value in µM)

{"Compound": "O=Cc1s/c(=N\\S(=O)(=O)c2ccccc2)n(CCCCl)c1Cl", "log10 of IC50": 0.71}
{"Compound": "CCS(=O)(=O)c1ncc(Cl)c(C(=O)Nc2ccc(S(=O)(=O)N(C)c3ccccc3)cc2)n1", "log10 of IC50": 0.84}
{"Compound": "C=C1C(=O)C23CCC4C(C)(C(=O)OC)CCCC4(C)C2CCC1(O)C3 (centres undefined)", "log10 of IC50": 0.80}
{"Compound": "CNC(=O)c1nnsc1S(=O)c1ccc(Cl)cc1 (centres undefined)", "log10 of IC50": 1.12}
{"Compound": "O=C(NC(=S)Nc1ccccc1O)c1cccnc1", "log10 of IC50": 1.48}
{"Compound": "C=CC[n+]1c(-c2ccc(Cl)cc2Cl)csc1Nc1c(C)n(C)n(-c2ccccc2)c1=O", "log10 of IC50": 1.47}
{"Compound": "CCCC/C=C1/CCC(CN(C)C)C1=O (centres undefined)", "log10 of IC50": 1.35}
{"Compound": "Cn1c(=O)[nH]c(=O)c2c1nc(Sc1nc3ccccc3s1)n2Cc1ccccc1", "log10 of IC50": 1.26}
{"Compound": "O=C(NC(=S)N(CCc1ccccc1)CCc1ccccc1)c1ccco1", "log10 of IC50": 0.95}
{"Compound": "Cc1ccc(NC(=S)N/N=C/c2ccc([N+](=O)[O-])s2)cc1", "log10 of IC50": 0.75}
{"Compound": "CCn1c(=O)c([N+](=O)[O-])c(Cl)c2ccccc21", "log10 of IC50": 0.65}
{"Compound": "C/C(=N\\NC(=O)c1cc(-c2cccs2)nc2ccccc12)c1ccccn1", "log10 of IC50": 0.43}
{"Compound": "C/C(=N\\NC(=O)Cc1ccc(Cl)cc1)c1ccccn1", "log10 of IC50": 0.52}
{"Compound": "Cc1nnc(Sc2cc(NCCCO)c([N+](=O)[O-])c3nonc23)s1", "log10 of IC50": 0.92}

---

Item-by-item account of IC50
molecular target: C-C chemokine receptor type 6 (Homo sapiens) (UniProt P51684); experiment: potency against CXCR6 with APJ panel – cell-based, beta-arrestin, DiscoveRx, uHTS hits, dose response (AID 624129); conditions: CXCR6 beta-arrestin (DiscoveRx) antagonist cell assay, CCR6, dose range 1

{"Molecule": "CN(CCO)c1cc(Sc2nc3ccccc3s2)c2nonc2c1[N+](=O)[O-]", "IC50": "6 µM"}
{"Molecule": "COC(=O)c1ccc2c(c1)C(C)(C)C(/C=C/c1ccccc1O)=[N+]2C", "IC50": "10.3 µM"}
{"Molecule": "CCn1c(=O)c([N+](=O)[O-])c(Cl)c2ccccc21", "IC50": "3.29 µM"}
{"Molecule": "FC(F)(F)c1cnc(NNC(=S)Nc2ccc(Cl)cc2)c(Cl)c1", "IC50": "10.9 µM"}
{"Molecule": "O=C1CN(C(=O)CSc2nc3cc(Cl)ccc3c(=O)n2Cc2ccccc2)c2ccccc2N1", "IC50": "9.4 µM"}
{"Molecule": "COc1ccc(C2CC(c3c(O)n(CCc4ccccc4)c(=O)[nH]c3=O)=NN2)cc1OC (stereo unspecified)", "IC50": "14.8 µM"}
{"Molecule": "C=C1C(=O)C23CCC4C(C)(C(=O)OC)CCCC4(C)C2CCC1(O)C3 (stereo unspecified)", "IC50": "5.19 µM"}
{"Molecule": "N#CC(C#N)=C1C=CC=CN1/C(=C\\c1ccccc1Cl)C(=O)c1ccccc1", "IC50": "7.75 µM"}
{"Molecule": "CC(=O)/C(=N\\Nc1ccc(Cl)cc1Cl)Sc1cccc2cccnc12", "IC50": "3.37 µM"}
{"Molecule": "COc1cc(/C=C/c2ccc3cccc(O)c3n2)ccc1O", "IC50": "13 µM"}
{"Molecule": "CCN(CC)CC(C)(C)C(=O)/C=C/c1ccc(/C=C/C(=O)C(C)(C)CN(CC)CC)cc1", "IC50": "2.76 µM"}
{"Molecule": "CC(=O)Nc1ccc(NCC(=O)c2ccccc2)cc1", "IC50": "28.9 µM"}
{"Molecule": "O=C1C=CC2(O[C@H](c3ccccc3)[C@@H](c3ccccc3)O2)[C@H](Sc2ccccc2O)C1", "IC50": "2.26 µM"}
{"Molecule": "N=C1S/C(=C\\c2ccco2)C(=O)N1c1nccs1", "IC50": "8.13 µM"}
{"Molecule": "CCS(=O)(=O)c1ncc(Cl)c(C(=O)Nc2ccc(S(=O)(=O)N3CCC(C)CC3)cc2)n1", "IC50": "5.88 µM"}
{"Molecule": "Cc1ccc2oc(/N=C(\\N)NC(=O)C(C)(C)C)nc2c1", "IC50": "11.2 µM"}
